Test: Cmax in rat at 10 mg/kg, po
Format: ADME, organism-based
Parameters: dose 10 mg/kg, route oral
Conditions: in vivo
MEASUREMENT KIND: Cmax (ng/mL)
API: value field is a number in ng/mL; no unit string.

Lookup: Please supply the value of reported Cmax for the item `NCCC(=O)N[C@H](Cc1ccc(Cl)cc1Cl)C(=O)N1CCN(c2ccccc2CNCCc2cccs2)CC1`
Found: 18

---

Test: Ratio of drug level in brain to plasma of rat at 2 mg/kg, iv after […]
Type: ADME, organism-based
Design: dose 2 mg/kg, route intravenous
MEASUREMENT KIND: Kp at […]
// no unit string in output, number only

Lookup: Please supply the value of reported Kp at […] for the item `NCCC(=O)N[C@H](Cc1ccc(Cl)cc1Cl)C(=O)N1CCN(c2ccccc2CNCCc2cccs2)CC1`
Found: 1

---

Experiment: Plasma concentration in rat at 2 mg/kg, iv after […]
Type: ADME, organism-based
Set-up: dose 2 mg/kg, route intravenous
MEASUREMENT KIND: concentration at […]
Quote the value and follow it with the unit of measurement.

Lookup: Please supply the value of reported concentration at […] for the item `NCCC(=O)N[C@H](Cc1ccc(Cl)cc1Cl)C(=O)N1CCN(c2ccccc2CNCCc2cccs2)CC1`
Found: 71 ng/mL

---

Assay: Volume of distribution in rat at 10 mg/kg, iv
Type: ADME, organism-based
Design: dose 10 mg/kg, route intravenous
Conditions: in vivo, read-out: Vdss
MEASUREMENT KIND: Vd (L/kg)
API: value field is a number in L/kg; no unit string.

Lookup: Please supply the value of reported Vd for the item `NCCC(=O)N[C@H](Cc1ccc(Cl)cc1Cl)C(=O)N1CCN(c2ccccc2CNCCc2cccs2)CC1`
Found: 9.5

---

Test: Distribution coefficient, log D at pH 7.4
Format: physicochemical
Details: octanol/water
MEASUREMENT KIND: logD

Lookup: Please supply the value of reported logD for the item `NCCC(=O)N[C@H](Cc1ccc(Cl)cc1Cl)C(=O)N1CCN(c2ccccc2CNCCc2cccs2)CC1`
Found: 1.1

---

Test: Intrinsic clearance in human liver microsomes
Type: ADME, Microsome
MEASUREMENT KIND: CLint scaled
Quote the value and follow it with the unit of measurement.

Lookup: Please supply the value of reported CLint scaled for the item `NCCC(=O)N[C@H](Cc1ccc(Cl)cc1Cl)C(=O)N1CCN(c2ccccc2CNCCc2cccs2)CC1`
Found: 23 mL/min/kg

---

Test: Concentration in rat brain at 2 mg/kg, iv after […]
Assay type: ADME, organism-based
Design: dose 2 mg/kg, route intravenous
Conditions: read-out: Drug uptake
MEASUREMENT KIND: concentration at […] (ng/g)
API: value field is a number in ng/g; no unit string.

Lookup: Please supply the value of reported concentration at […] for the item `NCCC(=O)N[C@H](Cc1ccc(Cl)cc1Cl)C(=O)N1CCN(c2ccccc2CNCCc2cccs2)CC1`
Found: 75
